Data origin, for the record: patent US20250136687A1

# Tested target: T1, recombinant human CD3ε-ECD His protein (human, UniProt P07766 23-126)
# T1 construct: extracellular domain; also called human CD3ε-His; CD3ε antigen protein; not shown: His tag
# T1 sequence (P07766 23-126): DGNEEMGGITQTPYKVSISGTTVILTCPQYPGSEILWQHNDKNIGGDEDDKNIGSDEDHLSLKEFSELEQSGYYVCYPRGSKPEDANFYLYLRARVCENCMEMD
# Protocol notes: SPR, antibody captured on Protein A chip
Measurement name: koff (s⁻¹)
Report the figure in s⁻¹ without appending any unit label.

Take a look at these entries with their results.
Binder: 8-18.1-H1-L2 humanized antibody (antibody, human IgG1, kappa, V domains shown) VH: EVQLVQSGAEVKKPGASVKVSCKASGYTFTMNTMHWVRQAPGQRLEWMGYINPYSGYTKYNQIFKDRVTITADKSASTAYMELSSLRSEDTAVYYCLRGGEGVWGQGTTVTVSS VL: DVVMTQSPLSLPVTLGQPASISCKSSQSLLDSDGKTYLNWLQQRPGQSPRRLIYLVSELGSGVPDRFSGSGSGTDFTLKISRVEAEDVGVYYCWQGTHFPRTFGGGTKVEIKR
Measurement name: koff
Measured number: 0.000249
//
Binder: 5-40.21-H3-L1 humanized antibody (antibody, human IgG1, kappa, V domains shown) VH: EVQLVQSGAEVKKPGASVKVSCKASGYTFTSYWMHWVRQAPGQGLEWMGNTYPGSGSTNYDEKFKSRVTITVDSSASTAYMELSSLRSEDTAVYYCTRDRYGVYYFDYWGQGTTVTVSS VL: DIVMTQSPDSLAVSLGERATINCKSSQSLLNSRTRKNYLAWYQQKPGQSPKLLIYWASTRESGVPDRFSGSGSGTDFTLTISSLQAEDVAVYYCTQSYNLRTFGGGTKVEIKR
Measurement name: koff
Measured number: 0.000485

Query: # koff lookup, item 6-44.5-H1-L2 humanized antibody (antibody, human IgG1, kappa, V domains shown) VH: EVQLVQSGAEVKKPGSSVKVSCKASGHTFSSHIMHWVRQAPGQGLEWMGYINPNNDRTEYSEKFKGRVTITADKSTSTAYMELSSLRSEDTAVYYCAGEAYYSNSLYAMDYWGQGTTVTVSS VL: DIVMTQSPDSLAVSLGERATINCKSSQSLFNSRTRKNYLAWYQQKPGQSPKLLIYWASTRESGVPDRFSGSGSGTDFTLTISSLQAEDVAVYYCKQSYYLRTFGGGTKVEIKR
Response: 0.000311
